Source of measurements: ChEMBL document CHEMBL5357076

- procedure_summary: Inhibition of Cyanidioschyzon merolae ABCB1 ATPase activity assessed as inhibition constant by colorimetric analysis
Label yes (1) when Ki is strictly below 9 µM; otherwise label no (0).

// below: answered molecules
CCCCOC(=O)c1ccccc1C1=c2cc3c(cc2Oc2cc4c(cc21)CCCN4)=NCCC3 ... no (0)
O=C(OCc1cc(C(F)(F)F)cc(C(F)(F)F)c1)c1ccccc1C1=c2cc3c(cc2Oc2cc4c(cc21)CCCN4)=NCCC3 ... yes (1)
O=C(OCCc1ccccc1)c1ccccc1C1=c2cc3c(cc2Oc2cc4c(cc21)CCCN4)=NCCC3 ... yes (1)

Query: Check if Ki falls below 9 µM for `O=C(OCc1ccccc1C(F)(F)F)c1ccccc1C1=c2cc3c(cc2Oc2cc4c(cc21)CCCN4)=NCCC3` .
Response: yes (1)

Query: Check if Ki falls below 9 µM for `CCCCOC(=O)c1ccccc1-c1c2cc(C)/c(=N\CC)cc-2oc2cc(NCC)c(C)cc12` .
Response: no (0)

Query: Check if Ki falls below 9 µM for `CC/N=c1/cc2oc3cc(NCC)c(C)cc3c(-c3ccccc3C(=O)OCC)c-2cc1C` .
Response: no (0)

Query: Check if Ki falls below 9 µM for `COc1ccccc1COC(=O)c1ccccc1C1=c2cc3c(cc2Oc2cc4c(cc21)CCCN4)=NCCC3` .
Response: yes (1)
